Where do the numbers come from? From ChEMBL document CHEMBL1156792.

# System: L1210
# Assay Explanation: Cytotoxicity against mouse L1210 cells assessed as inhibition of cell proliferation after 48 hrs
# Type: functional, cell-based
# Details: L1210, 48 h
Peptide text beside a SMILES is read from it. * marks the point of attachment. X1 = O=c1nc(N*)ccn1[C@@H]1O[C@H](CO)[C@@H](O)[C@@H]1O
Reported values of pIC50 for individual entries
Would you please state pIC50, meaning minus log10 of the concentration in mol/L, as a bare number?

Compound	Quantitative Result
CC(C)[C@H](N)C(=O)N1CCC[C@H]1C(=O)N[C@H](C(=O)N1CCC[C@H]1C(=O)Nc1ccn([C@@H]2O[C@H](CO)[C@@H](O)[C@@H]2O)c(=O)n1)C(C)C (H-VPVP-X1)	7.00

Now look at this one.
## Input Would you please give the reported pIC50 of CC(C)[C@H](N)C(=O)N[C@@H](C)C(=O)N[C@H](C(=O)N1CCC[C@H]1C(=O)Nc1ccn([C@@H]2O[C@H](CO)[C@@H](O)[C@@H]2O)c(=O)n1)C(C)C (H-VAVP-X1) with L1210?
## Output 7.09
